Target or test system: RecQ-like DNA helicase BLM (Homo sapiens) (UniProt P54132)
Sequence (P54132 whole entry, looked up): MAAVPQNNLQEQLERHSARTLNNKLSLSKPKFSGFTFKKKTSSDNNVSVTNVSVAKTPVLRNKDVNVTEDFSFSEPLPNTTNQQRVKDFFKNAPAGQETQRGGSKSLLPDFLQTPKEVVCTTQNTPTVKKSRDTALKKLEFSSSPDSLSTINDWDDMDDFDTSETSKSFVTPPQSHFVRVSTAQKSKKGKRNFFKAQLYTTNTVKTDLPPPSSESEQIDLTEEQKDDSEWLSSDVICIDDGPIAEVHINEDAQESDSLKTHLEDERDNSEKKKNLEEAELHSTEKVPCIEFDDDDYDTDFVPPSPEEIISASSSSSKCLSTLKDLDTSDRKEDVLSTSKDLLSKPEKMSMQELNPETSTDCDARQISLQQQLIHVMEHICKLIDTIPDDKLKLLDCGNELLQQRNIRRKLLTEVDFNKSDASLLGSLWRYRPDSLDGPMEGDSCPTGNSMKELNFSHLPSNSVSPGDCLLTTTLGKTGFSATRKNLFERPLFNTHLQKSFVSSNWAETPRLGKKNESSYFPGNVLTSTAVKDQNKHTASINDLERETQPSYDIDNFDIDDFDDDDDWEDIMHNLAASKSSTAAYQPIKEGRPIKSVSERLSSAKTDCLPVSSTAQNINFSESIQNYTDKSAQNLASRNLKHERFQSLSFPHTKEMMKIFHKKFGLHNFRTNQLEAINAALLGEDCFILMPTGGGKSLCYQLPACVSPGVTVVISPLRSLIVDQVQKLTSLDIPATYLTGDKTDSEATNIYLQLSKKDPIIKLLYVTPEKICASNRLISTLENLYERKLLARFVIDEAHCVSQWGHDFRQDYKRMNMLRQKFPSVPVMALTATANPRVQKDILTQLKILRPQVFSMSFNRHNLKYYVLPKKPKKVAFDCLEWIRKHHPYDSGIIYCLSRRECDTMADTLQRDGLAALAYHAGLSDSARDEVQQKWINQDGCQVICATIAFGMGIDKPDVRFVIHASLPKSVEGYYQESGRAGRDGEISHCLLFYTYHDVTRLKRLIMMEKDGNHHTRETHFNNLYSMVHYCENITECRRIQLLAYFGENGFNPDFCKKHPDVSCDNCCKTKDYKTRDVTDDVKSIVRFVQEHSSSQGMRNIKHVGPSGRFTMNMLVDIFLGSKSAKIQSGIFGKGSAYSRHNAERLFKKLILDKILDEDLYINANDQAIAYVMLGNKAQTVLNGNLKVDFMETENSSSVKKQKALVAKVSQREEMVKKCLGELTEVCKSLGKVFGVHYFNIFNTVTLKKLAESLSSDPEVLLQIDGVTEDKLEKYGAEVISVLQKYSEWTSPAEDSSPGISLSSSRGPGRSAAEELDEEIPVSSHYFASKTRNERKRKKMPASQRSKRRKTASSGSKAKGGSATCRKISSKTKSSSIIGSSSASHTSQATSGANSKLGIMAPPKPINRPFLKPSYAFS
Assay protocol: qHTS for Inhibitors of Bloom's syndrome helicase (BLM): Helicase DNA unwinding fluorescent orthogonal confirmatory assay for SAR
Conditions used: fluorescence, orthogonal confirmation; series mostly up to 55.6 µM
Results filed as inconclusive are left out. Calls of active or inactive are those of the source. Calls follow the shape of the dose curve; as a rule, active = well fitted inhibition curve with a large enough effect; inconclusive = small, poorly fitted or top-dose-only effect; inactive = no such curve, though single readings can be large or run the other way.
Hi there, use one of these labels in your reply, thanks! 1.0 = active, 0.0 = inactive

Check out these entries, answers already filled in.
[[record]]
input_smiles = "O=C(Nc1ccc2c(c1)OCCO2)Nc1nnc(-c2ccncc2)s1"
class_assignment = 0.0

[[record]]
input_smiles = "CC(=O)c1ccc(NC(=O)Nc2nnc(-c3ccncc3)s2)cc1"
class_assignment = 0.0

[[record]]
input_smiles = "O=C(Nc1ccc2ccccc2c1)Nc1nnc(-c2ccccc2)s1"
class_assignment = 0.0

[[record]]
input_smiles = "CCCCCCNC(=O)Nc1nnc(-c2ccncc2)s1"
class_assignment = 0.0

[[record]]
input_smiles = "Cc1cc(NC(=O)Nc2nnc(C3CCCCC3)s2)ccc1Br"
class_assignment = 0.0


### Prompt Entry `O=C(Nc1ccc(N2CCOCC2)c(C(F)(F)F)c1)Nc1nnc(-c2ccncc2)s1` : call = ?
### Response 1.0
